Target: Glucagon receptor (Rattus norvegicus, UniProt P30082)
Sequence (P30082 whole entry): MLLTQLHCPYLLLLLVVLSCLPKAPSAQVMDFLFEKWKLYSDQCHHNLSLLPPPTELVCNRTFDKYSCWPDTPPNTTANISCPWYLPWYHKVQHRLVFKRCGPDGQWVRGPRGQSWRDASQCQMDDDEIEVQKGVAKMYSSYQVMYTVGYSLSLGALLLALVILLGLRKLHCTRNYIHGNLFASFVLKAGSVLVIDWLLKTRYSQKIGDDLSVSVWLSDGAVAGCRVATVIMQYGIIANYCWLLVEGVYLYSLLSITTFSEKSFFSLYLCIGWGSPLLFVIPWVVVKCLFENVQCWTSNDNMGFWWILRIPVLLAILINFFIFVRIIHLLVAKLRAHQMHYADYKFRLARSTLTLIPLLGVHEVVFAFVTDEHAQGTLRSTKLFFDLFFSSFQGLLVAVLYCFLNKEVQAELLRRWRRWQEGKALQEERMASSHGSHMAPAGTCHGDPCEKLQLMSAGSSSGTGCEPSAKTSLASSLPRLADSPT
Experiment: Binding affinity towards Glucagon receptor in rat liver plasma membranes by displacement of 125 I-labelled glucagon
Format: cell membranes
READOUT_LABEL: pIC50
# pIC50 = -log10(concentration in molar units)

The recorded pIC50 for entry H-HSQGTTSDYSKYLDSRRAQDFVQWLMNT-OH equals 6.30
